Data provenance is paper PMC2909763.

- MEASURED_TARGET: HDAC1 (Homo sapiens)
- Sequence (Q13547 whole entry): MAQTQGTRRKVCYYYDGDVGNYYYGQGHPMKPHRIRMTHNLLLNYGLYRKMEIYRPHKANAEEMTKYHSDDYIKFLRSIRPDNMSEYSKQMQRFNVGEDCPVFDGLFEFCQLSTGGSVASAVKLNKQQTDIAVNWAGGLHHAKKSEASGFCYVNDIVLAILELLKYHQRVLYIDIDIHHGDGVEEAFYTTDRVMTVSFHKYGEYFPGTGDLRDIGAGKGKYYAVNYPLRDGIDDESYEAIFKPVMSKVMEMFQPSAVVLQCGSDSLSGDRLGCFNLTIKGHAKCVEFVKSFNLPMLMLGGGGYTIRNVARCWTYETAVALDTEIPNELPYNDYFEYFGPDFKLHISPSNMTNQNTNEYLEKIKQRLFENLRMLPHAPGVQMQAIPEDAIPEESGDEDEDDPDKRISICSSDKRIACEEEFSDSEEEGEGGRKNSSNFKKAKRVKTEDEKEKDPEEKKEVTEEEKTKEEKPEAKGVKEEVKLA
- PROTOCOL_NOTES: IC50 with recombinant HDAC1
PROPERTY: pIC50
Just so you know, pIC50 here is -log10 of the concentration in molar units; reply with that number alone.

// sample CC(C)(C)OC(=O)Nc1ccc(NC(=O)CCCC(=O)C(F)(F)F)cc1 , its pIC50 was 4.52

---

- MEASURED_TARGET: HDAC7 (Homo sapiens, UniProt Q8WUI4)
- Sequence (Q8WUI4 whole entry): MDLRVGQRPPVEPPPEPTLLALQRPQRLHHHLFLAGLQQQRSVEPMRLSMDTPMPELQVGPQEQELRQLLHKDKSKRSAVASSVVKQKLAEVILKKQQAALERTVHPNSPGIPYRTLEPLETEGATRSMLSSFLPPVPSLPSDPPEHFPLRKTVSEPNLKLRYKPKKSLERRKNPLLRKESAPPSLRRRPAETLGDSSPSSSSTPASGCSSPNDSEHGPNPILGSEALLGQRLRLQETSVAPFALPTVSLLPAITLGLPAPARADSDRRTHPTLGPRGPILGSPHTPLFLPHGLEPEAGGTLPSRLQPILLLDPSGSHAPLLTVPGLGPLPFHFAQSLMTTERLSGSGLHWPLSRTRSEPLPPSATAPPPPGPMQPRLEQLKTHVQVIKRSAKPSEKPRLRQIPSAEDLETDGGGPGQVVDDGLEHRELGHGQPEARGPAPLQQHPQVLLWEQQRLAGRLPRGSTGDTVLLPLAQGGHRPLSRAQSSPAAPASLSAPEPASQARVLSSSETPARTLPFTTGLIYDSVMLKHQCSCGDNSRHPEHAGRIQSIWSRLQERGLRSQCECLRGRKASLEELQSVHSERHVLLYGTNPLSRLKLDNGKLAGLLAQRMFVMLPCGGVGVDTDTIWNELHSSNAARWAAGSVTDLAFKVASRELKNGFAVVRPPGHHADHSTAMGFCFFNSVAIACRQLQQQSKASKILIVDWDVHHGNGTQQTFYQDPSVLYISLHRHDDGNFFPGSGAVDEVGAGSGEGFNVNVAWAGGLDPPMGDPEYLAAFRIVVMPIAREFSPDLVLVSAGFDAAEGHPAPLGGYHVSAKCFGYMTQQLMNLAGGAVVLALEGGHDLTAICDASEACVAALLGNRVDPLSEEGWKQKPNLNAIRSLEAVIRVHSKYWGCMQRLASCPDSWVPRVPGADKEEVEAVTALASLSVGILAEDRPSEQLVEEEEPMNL
- PROTOCOL_NOTES: IC50 with recombinant HDAC7
PROPERTY: pIC50
# reply with the number alone; pIC50 is -log10 of concentration in mol/L

Entry CC(C)(C)OC(=O)Nc1ccc(NC(=O)CCCC(=O)C(F)(F)F)cc1 , pIC50 reported as 5.40
